- Test system: 282377-053-R-J1-PDC complex spheroid viability;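 also: spheroids exposed to compounds for seven days; 100% = DMSO vehicle control viability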
- test.summary: Anticancer human tumor 282377-053-R-J1-PDC patient-derived colon adenocarcinoma cell line growth inhibition [POLQ]
- test.context: second compound 3.16 µM; first compound 0.316 µM; stronger effect = lower value
readout.kind: viability, T/C (%)
Report the figure in % without appending any unit label.

[ask] Which viability, T/C is reported with 282377-053-R-J1-PDC complex spheroid viability for this entry: CCc1cc2c(N3CCc4c(cc(Cn5ccnc5)cc4-c4cn(C)nc4C(F)(F)F)C3=O)ccnc2c(OC)n1 + Cc1cccc(N(C)C(=O)C2C(O)CCN2c2nc(C)cc(C(F)(F)F)c2C#N)c1 ?
[reply] 101

[ask] Which viability, T/C is reported with 282377-053-R-J1-PDC complex spheroid viability for this entry: CC1COCCN1c1cc(C2(S(C)(=N)=O)CC2)nc(-c2ccnc3[nH]ccc23)n1 (stereo not given) + Cc1cccc(N(C)C(=O)C2C(O)CCN2c2nc(C)cc(C(F)(F)F)c2C#N)c1 ?
[reply] 123

[ask] Which viability, T/C is reported with 282377-053-R-J1-PDC complex spheroid viability for this entry: C=CCn1c(=O)c2cnc(Nc3ccc(N4CCN(C)CC4)cc3)nc2n1-c1cccc(C(C)(C)O)n1 + Nc1ccc(C#CCN(C(=O)Cc2ncc(C(F)(F)F)cc2C(F)(F)F)c2ccc(F)cc2)nn1 ?
[reply] 85.3

[ask] Which viability, T/C is reported with 282377-053-R-J1-PDC complex spheroid viability for this entry: COc1cccc(OCCCN)c1-c1cc(Nc2cnc(C#N)cn2)n[nH]1 + Nc1ccc(C#CCN(C(=O)Cc2ncc(C(F)(F)F)cc2C(F)(F)F)c2ccc(F)cc2)nn1 ?
[reply] 39.7

[ask] Which viability, T/C is reported with 282377-053-R-J1-PDC complex spheroid viability for this entry: C=CCn1c(=O)c2cnc(Nc3ccc(N4CCN(C)CC4)cc3)nc2n1-c1cccc(C(C)(C)O)n1 + COC1C(OC(N)=O)C(O)C(Oc2ccc3c(O)c(NC(=O)c4ccc(O)c(CC=C(C)C)c4)c(=O)oc3c2C)OC1(C)C ?
[reply] 105

[ask] Which viability, T/C is reported with 282377-053-R-J1-PDC complex spheroid viability for this entry: COc1cc2cc(C(=O)CCC(=O)O)sc2cc1OC + COC1C(OC(N)=O)C(O)C(Oc2ccc3c(O)c(NC(=O)c4ccc(O)c(CC=C(C)C)c4)c(=O)oc3c2C)OC1(C)C ?
[reply] 119

[ask] Which viability, T/C is reported with 282377-053-R-J1-PDC complex spheroid viability for this entry: C#Cc1c(F)ccc2cc(O)cc(-c3ncc4c(N5CC6CCC(C5)N6)nc(OCC56CCCN5CC(F)C6)nc4c3F)c12 (stereo not given) + COC1C(OC(N)=O)C(O)C(Oc2ccc3c(O)c(NC(=O)c4ccc(O)c(CC=C(C)C)c4)c(=O)oc3c2C)OC1(C)C ?
[reply] 95.4

[ask] Which viability, T/C is reported with 282377-053-R-J1-PDC complex spheroid viability for this entry: CC1COCCN1c1cc(-c2ccnn2C)c2ccnc(-c3ccn[nH]3)c2n1 (stereo not given) + Nc1ccc(C#CCN(C(=O)Cc2ncc(C(F)(F)F)cc2C(F)(F)F)c2ccc(F)cc2)nn1 ?
[reply] 67.3

[ask] Which viability, T/C is reported with 282377-053-R-J1-PDC complex spheroid viability for this entry: CCCS(=O)(=O)Nc1ccc(F)c(C(=O)c2c[nH]c3ncc(-c4ccc(Cl)cc4)cc23)c1F + Nc1ccc(C#CCN(C(=O)Cc2ncc(C(F)(F)F)cc2C(F)(F)F)c2ccc(F)cc2)nn1 ?
[reply] 69.5

[ask] Which viability, T/C is reported with 282377-053-R-J1-PDC complex spheroid viability for this entry: CCc1cc2c(N3CCc4c(cc(Cn5ccnc5)cc4-c4cn(C)nc4C(F)(F)F)C3=O)cc(C)nc2c(OC)n1 + COC1C(OC(N)=O)C(O)C(Oc2ccc3c(O)c(NC(=O)c4ccc(O)c(CC=C(C)C)c4)c(=O)oc3c2C)OC1(C)C ?
[reply] 133

All figures here come from PubChem BioAssay AID1963852.
